assay_method_text: The drug is tested on WLS-370 corresponding to human gut metagenome with ENA study accession number: PRJEB37062 and ENA sample accession number: ERS12561793 for biotransformation under anaerobic condition. The drug concentrations were measured over 9 timepoints collected between 0 and 24 hours of incubation by liquid-chromatography-coupled mass spectrometry (LC–MS); also: call rule not given here
cond: 2 µM
experimental_readout: Bacterial Biotransformation

# count of solved cases: 6
compound | Bacterial Biotransformation
CC[C@H](C)C(=O)O[C@H]1C[C@@H](C)C=C2C=C[C@H](C)[C@H](CC[C@@H]3C[C@@H](O)CC(=O)O3)[C@H]21 | Compound NOT metabolized
COC(=O)[C@H]1[C@H]2C[C@@H]3c4[nH]c5cc(OC)ccc5c4CCN3C[C@H]2C[C@@H](OC(=O)c2cc(OC)c(OC)c(OC)c2)[C@@H]1OC | Compound metabolized
CCN(CC)CCNC(=O)c1cc(Cl)c(N)cc1OC [METOCLOPRAMIDE] | Compound NOT metabolized
CN1CC(=O)N2[C@H](c3ccc4c(c3)OCO4)c3[nH]c4ccccc4c3C[C@@H]2C1=O | Compound metabolized
CCN1CCCC1CNC(=O)c1cc(S(N)(=O)=O)ccc1OC (stereo not drawn) [SULPIRIDE] | Compound NOT metabolized
CC(CN1c2ccccc2Sc2ccccc21)N(C)C (stereo not drawn) | Compound NOT metabolized

INPUT: Name the recorded Bacterial Biotransformation for COc1ccc2[nH]c([S+]([O-])Cc3ncc(C)c(OC)c3C)nc2n1 (stereo not drawn) .
OUTPUT: Compound metabolized

INPUT: Name the recorded Bacterial Biotransformation for CC(C)N(CCC(C(N)=O)(c1ccccc1)c1ccccn1)C(C)C.O=P(O)(O)O (stereo not drawn) [DISOPYRAMIDE PHOSPHATE] .
OUTPUT: Compound NOT metabolized
